# reported viability at 24 h, 10 µM; entries follow
# measurement_notes: Cytotoxicity against mouse RAW264.7 cells assessed as effect on cell viability at 1 to 10 uM after 24 hrs by MTT assay relative to control
# Format: cell-based
# study_conditions: read-out: Activity

CCNC(=O)/C=C/c1ccc(O)c2oc(-c3ccc(O)c(O)c3)cc12 :: > 85%

Read the next record carefully.
Find the recorded viability at 24 h, 10 µM belonging to `O=C(/C=C/c1ccc(O)c2oc(-c3ccc(O)c(O)c3)cc12)Nc1ccc(O)cc1` and report it.
> 85%

---

Listed here: compounds with reported pIC50 for Xanthine dehydrogenase/oxidase (Bos taurus, UniProt P80457).
In textbook form, pIC50 equals minus log to base ten of the concentration in mol/L.

C=CCNC(=O)CCc1ccc(O)c2oc(-c3ccc(O)c(O)c3)cc12 :: 4.33
O=C(/C=C/c1ccc(O)c2oc(-c3ccc(O)c(O)c3)cc12)Nc1ccccc1 :: 4.75

Let us examine a further case.
Lab note: need pIC50 with Xanthine dehydrogenase/oxidase (Bos taurus, UniProt P80457) for entry `O=C(O)/C=C/c1ccc(O)c2oc(-c3ccc(O)c(O)c3)cc12` , please look it up.
Sequence (P80457 whole entry): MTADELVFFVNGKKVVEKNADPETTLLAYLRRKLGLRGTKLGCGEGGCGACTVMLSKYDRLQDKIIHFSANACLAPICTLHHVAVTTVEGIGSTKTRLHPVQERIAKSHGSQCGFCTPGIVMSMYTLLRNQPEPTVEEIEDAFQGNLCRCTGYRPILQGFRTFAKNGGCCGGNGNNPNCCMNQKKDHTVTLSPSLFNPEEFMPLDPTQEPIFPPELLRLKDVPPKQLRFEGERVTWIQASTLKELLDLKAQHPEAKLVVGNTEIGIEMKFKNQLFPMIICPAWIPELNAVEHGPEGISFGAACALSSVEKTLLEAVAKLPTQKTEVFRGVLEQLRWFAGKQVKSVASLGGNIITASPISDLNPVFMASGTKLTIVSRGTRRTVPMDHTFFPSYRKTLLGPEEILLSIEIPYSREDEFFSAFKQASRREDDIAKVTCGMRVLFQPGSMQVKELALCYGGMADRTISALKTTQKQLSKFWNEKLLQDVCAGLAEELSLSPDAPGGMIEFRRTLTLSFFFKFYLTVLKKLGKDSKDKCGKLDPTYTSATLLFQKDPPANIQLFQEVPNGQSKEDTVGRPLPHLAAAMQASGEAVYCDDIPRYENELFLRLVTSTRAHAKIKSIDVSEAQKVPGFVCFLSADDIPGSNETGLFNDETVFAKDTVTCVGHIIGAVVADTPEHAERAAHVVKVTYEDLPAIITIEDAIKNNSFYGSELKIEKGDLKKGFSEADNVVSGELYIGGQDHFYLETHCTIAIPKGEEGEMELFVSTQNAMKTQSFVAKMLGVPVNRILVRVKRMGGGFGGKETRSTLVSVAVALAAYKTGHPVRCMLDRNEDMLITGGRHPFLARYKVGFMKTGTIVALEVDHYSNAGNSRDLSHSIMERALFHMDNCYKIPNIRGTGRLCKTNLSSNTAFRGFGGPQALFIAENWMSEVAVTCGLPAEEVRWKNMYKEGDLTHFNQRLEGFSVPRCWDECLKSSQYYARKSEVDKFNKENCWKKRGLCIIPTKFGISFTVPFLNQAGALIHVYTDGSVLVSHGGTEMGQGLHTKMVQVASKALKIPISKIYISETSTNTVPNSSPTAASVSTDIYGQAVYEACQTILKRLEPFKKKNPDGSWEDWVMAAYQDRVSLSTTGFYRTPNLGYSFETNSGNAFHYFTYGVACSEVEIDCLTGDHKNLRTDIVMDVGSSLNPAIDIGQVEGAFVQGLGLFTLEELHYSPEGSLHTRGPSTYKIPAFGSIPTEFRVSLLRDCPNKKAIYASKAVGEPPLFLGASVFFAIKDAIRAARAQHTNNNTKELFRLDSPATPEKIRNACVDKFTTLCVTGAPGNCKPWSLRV
4.79

---

Reported pIC50 values for a set of molecules
# tgt: Xanthine dehydrogenase/oxidase (Bos taurus)
Units for pIC50: none; it is -log10 of a concentration expressed in mol/L.

O=C(/C=C/c1ccc(O)c2oc(-c3ccc(O)c(O)c3)cc12)Nc1ccc(O)cc1 :: 4.96
O=C(CCc1ccc(O)c2oc(-c3ccc(O)c(O)c3)cc12)Nc1ccc(O)cc1 :: 4.41
Cc1ccc(NC(=O)/C=C/c2ccc(O)c3oc(-c4ccc(O)c(O)c4)cc23)cc1 :: 4.29
O=C(/C=C/c1ccc(O)c2oc(-c3ccc(O)c(O)c3)cc12)N1CCCCC1 :: 4.67

Please give the measured pIC50 for this molecule: `O=C(O)CCc1ccc(O)c2oc(-c3ccc(O)c(O)c3)cc12`
5.01

---

# tgt: Xanthine dehydrogenase/oxidase (Bos taurus)
# measurement_notes: Uncompetitive inhibition of bovine xanthine oxidase using xanthine as substrate preincubated for 3 mins followed by substrate addition by Lineweaver-Burk plot analysis
measured_metric: pKi
The read-out pKi is expressed as -log10 of concentration in moles per litre.

Query (compound): `CNC(=O)/C=C/c1ccc(O)c2oc(-c3ccc(O)c(O)c3)cc12` ; field requested: pKi
4.88

Source listed as ChEMBL document CHEMBL4270514.
